Recorded pIC50 by entry
target: noradrenaline (NA) reuptake in synaptosomes (Rattus norvegicus, UniProt Q9WTR4); construct: in synaptosomes as described in WO 97/16451; from tissue; assay: In vitro inhibition of NA reuptake in synaptosomes; assay type: biochemical; conditions: 3H-NA, as described in WO 97/16451, read-out: NA-uptake IC50
Sequence (Q9WTR4 1-597): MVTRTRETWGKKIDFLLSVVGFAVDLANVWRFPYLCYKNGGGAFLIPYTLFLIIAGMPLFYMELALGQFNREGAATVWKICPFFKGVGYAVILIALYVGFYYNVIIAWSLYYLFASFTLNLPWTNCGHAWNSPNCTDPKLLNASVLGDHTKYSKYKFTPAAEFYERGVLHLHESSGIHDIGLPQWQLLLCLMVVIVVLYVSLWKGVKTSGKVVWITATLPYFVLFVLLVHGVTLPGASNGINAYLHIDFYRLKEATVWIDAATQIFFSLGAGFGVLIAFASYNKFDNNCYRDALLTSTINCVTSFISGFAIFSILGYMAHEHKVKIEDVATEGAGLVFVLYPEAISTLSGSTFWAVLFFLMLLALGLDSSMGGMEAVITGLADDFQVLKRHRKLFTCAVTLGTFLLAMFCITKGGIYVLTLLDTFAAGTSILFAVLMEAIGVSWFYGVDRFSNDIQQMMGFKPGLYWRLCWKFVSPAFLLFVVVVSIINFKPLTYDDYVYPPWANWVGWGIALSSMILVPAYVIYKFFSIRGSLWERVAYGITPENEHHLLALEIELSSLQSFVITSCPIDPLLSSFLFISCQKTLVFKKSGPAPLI
For clarity, pIC50 is expressed as the negative log10 of concentration in mol/L.

Value of pIC50 reported for the molecule O=c1oc2cc(O[C@@H]3C[C@H]4CC[C@@H](C3)N4)ccc2cc1-c1cccc(F)c1 is 7.59

Value of pIC50 reported for the molecule O=c1oc2cc(O[C@@H]3C[C@H]4CC[C@@H](C3)N4)ccc2cc1-c1ccccc1 is 7.72
